Reference for the values: ChEMBL document CHEMBL5058577

Tested on: HEK-293T
Test: Multiplex assay against HEK293T
Format: toxicity, cell-based
Conditions: human, 24 h, 10 µM, compound concentration 10 uM, replicate 2
OUTCOME MEASURE: Population Fragmented Nuclei (%)

# COMPOUND, QUANTITATIVE RESULT
data = [
    ("CN1CCN(c2nc3cc(C(F)(F)F)ccc3n3cccc23)CC1.O=C(O)/C=C\\C(=O)O.O=C(O)/C=C\\C(=O)O", 10),
    ("Cc1nc2ccc(Oc3ccc(F)cc3)cc2c(=O)n1C[C@H]1CCCN(C(C)C)C1.Cl", 11),
    ("O=C(NCC(=O)N1CC[C@H](N[C@H]2CC[C@@](O)(c3ccc(-c4ncccn4)cn3)CC2)C1)c1cccc(C(F)(F)F)c1 [PF-4136309]", 8),
    ("CN(C)c1ccnc2sc3c(=O)n(N4CCCCCC4)cnc3c12", 10),
    ("C[C@H](NC(=O)c1c(C(F)F)nn(C)c1Oc1cccc(C(F)(F)F)c1)c1ccc(C(=O)O)cc1 [PALUPIPRANT]", 7),
    ("CC[C@H]1OC(=O)[C@H](C)[C@@H](O[C@H]2C[C@@](C)(OC)[C@@H](O)[C@H](C)O2)[C@H](C)[C@@H](O[C@@H]2O[C@H](C)C[C@H](N(C)C)[C@H]2O)[C@@]2(C)CC(C)=C(O2)[C@H](C)[C@@H](O)[C@]1(C)O", 10),
    ("CCCC(CCC)C(=O)O [VALPROIC ACID]", 8),
]
